Test: PET hydrolysis product formed (TPA+MHET+BHET, UV-Vis) per mg enzyme (mmol/mg enzyme); higher = more PET depolymerisation activity; extreme values may be limits of the assay
Reported Conditions: PET substrate: cryPow; 70 °C; pH 4.5; 24 h
Assay Metric: PET hydrolysis product formed

>>> recorded_value("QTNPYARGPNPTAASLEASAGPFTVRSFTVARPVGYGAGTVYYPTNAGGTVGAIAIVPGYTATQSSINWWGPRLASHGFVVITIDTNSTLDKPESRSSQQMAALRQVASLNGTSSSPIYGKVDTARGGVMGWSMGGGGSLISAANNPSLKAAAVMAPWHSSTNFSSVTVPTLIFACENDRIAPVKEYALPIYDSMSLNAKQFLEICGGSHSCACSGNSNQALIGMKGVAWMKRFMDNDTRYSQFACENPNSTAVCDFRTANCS [HotPETase]")
0
>>> recorded_value("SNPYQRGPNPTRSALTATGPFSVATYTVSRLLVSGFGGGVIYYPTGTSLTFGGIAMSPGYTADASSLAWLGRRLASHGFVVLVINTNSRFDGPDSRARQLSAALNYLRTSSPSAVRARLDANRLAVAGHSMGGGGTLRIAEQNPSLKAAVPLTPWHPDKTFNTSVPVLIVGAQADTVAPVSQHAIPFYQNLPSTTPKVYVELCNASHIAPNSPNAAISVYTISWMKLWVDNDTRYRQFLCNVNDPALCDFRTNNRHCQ [LCC-ICCG I6M]")
0
>>> recorded_value("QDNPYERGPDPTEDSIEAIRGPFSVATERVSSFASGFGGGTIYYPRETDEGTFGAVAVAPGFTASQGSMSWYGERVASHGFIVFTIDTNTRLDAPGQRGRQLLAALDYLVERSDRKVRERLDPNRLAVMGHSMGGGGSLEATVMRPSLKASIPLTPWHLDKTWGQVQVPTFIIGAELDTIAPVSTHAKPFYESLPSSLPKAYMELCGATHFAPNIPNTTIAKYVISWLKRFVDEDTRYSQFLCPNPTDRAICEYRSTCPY [Cut190*SS]")
0

---

Test: PET hydrolysis product formed (TPA+MHET+BHET, UV-Vis) per mg enzyme (mmol/mg enzyme); higher = more PET depolymerisation activity; extreme values may be limits of the assay
Reported Conditions: PET substrate: cryPow; 70 °C; pH 8.5; 2 h
Each entry below lists one item and its recorded PET hydrolysis product formed value.
Assay Metric: PET hydrolysis product formed

>>> recorded_value("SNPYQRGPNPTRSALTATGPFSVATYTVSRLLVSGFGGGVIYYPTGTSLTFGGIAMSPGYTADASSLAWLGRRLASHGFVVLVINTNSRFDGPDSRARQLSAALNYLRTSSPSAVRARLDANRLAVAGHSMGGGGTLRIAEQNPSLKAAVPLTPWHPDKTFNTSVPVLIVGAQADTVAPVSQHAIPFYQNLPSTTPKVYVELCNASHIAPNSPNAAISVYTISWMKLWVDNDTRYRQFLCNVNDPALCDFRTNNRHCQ [LCC-ICCG I6M]")
0.0203
>>> recorded_value("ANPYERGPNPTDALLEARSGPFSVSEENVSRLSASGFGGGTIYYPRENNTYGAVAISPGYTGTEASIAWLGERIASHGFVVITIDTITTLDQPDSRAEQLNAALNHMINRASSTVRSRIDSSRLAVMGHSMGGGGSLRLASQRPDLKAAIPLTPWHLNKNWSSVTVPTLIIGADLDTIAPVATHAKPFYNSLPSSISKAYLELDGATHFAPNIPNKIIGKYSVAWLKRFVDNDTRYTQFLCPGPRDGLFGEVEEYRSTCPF [TfCut2]")
0
